test system: Fibroblast; experiment: Multiplex assay against human fibroblast; type: toxicity, cell-based; conditions: 48 h, 10 µM, compound concentration 10 uM, replicate 1
quantityMeasured: Population Membrane Permeable-Phenotype (%)

| compound | measurementUnits | experimentalValue |
| --- | --- | --- |
| Cl.O=C(O)c1cc(-c2ccc(C3CCNCC3)cc2)c2ccc(-c3ccc(C(F)(F)F)cc3)cc2c1 | % | 11 |
| COc1cc(Nc2nccc(-c3cnn4nc(OC)ccc34)n2)cc(C(F)(F)F)c1 | % | 10 |
| CC1=C(C(=O)Nc2cc3cn[nH]c3cc2F)C(c2ccc(C(F)(F)F)cc2)CC(=O)N1 (centres undefined) | % | 26 |
| O=c1cc(N2CCOCC2)oc2c(-c3cccc4c3sc3ccccc34)cccc12 | % | 17 |
| CCOC(=O)Nc1cc(-c2ccc(C)c(NS(C)(=O)=O)c2)nn2c(C)nnc12 | % | 16 |
| CCCSc1nc(N[C@@H]2C[C@H]2c2ccc(F)c(F)c2)c2nnn([C@@H]3C[C@H](OCCO)[C@@H](O)[C@H]3O)c2n1 | % | 22 |
| COc1cc2ncn(-c3cc(OCc4ccccc4C(F)(F)F)c(C(N)=O)s3)c2cc1OC [GW843682X] | % | 24 |
| CCc1nn(CCCN2CCN(c3cccc(Cl)c3)CC2)c(=O)n1CCOc1ccccc1.Cl [NEFAZODONE HYDROCHLORIDE] | % | 1 |
| CC(C)(C)NC[C@H](O)COc1nsnc1N1CCOCC1 | % | 51 |
